# target_entity: mushroom tyrosinase (mTYR) (Agaricus bisporus, UniProt C7FF04)
# Construct: purchased Sigma-Aldrich (Milan, Italy)
# Sequence (C7FF04 1-392): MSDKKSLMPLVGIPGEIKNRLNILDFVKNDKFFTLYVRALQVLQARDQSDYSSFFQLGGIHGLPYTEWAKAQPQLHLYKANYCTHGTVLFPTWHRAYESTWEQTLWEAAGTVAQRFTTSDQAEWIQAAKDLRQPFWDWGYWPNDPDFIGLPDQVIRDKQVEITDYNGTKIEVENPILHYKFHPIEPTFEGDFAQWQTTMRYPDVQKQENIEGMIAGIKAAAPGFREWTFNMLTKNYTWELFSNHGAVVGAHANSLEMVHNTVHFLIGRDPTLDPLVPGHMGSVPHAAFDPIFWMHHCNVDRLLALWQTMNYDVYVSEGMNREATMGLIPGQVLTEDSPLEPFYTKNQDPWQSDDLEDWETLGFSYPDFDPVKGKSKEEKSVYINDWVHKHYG
# assay_overview: Inhibition of mushroom tyrosinase monophenolase reaction (substrate L-tyrosine, dopachrome at 475 nm)
# Format: biochemical
# test_context: KI Competitive, monophenolase, average over inhibitor concentrations

{"structure_string": "COc1cc(/C=C/C(=O)c2ccc(O)cc2O)ccc1O", "Ki / nM": 2760}

###

# target_entity: mushroom tyrosinase (mTYR) (Agaricus bisporus, UniProt C7FF04)
# Construct: purchased Sigma-Aldrich (Milan, Italy)
# assay_overview: Inhibition of mushroom tyrosinase diphenolase reaction (substrate L-dopa, dopachrome at 475 nm)
# Assay type: biochemical
# test_context: IC50 Diphenolase, 30 °C, pH 6.8, L-dopa 0.05 mM

{"structure_string": "COc1cc(/C=C/C(=O)c2ccc(O)cc2O)ccc1O", "target_entity": "mushroom tyrosinase (mTYR) (Agaricus bisporus, UniProt C7FF04)", "measure_unit": "µM", "IC50": 3.04}
{"structure_string": "O=C(/C=C/c1ccc(O)c(O)c1)c1ccc(O)cc1O", "target_entity": "mushroom tyrosinase (mTYR) (Agaricus bisporus, UniProt C7FF04)", "measure_unit": "µM", "IC50": 3.76}
